value-kind: melting point

Input: For O=C1CC(c2ccccc2)C(C(=O)Nc2ccccn2)(C(=O)Nc2ccccn2)C(c2ccccc2)C1 (stereo not shown) [Compound 3a] , what is its reported melting point?
Output: 248 to 249 °C

Input: Lookup Cc1ccc(C2CC(=O)CC(c3ccc(C)cc3)C2(C(=O)Nc2ccc(Cl)cn2)C(=O)Nc2ccc(Cl)cn2)cc1 (stereo not shown) [Compound 3b]
Output: 145 to 146 °C

Input: Now the same for O=C1CC(c2ccc(Cl)cc2)C(C(=O)Nc2ccccn2)(C(=O)Nc2ccccn2)C(c2ccc(Cl)cc2)C1 (stereo not shown) [Compound 3c]
Output: 231 to 232 °C

// next entry
Input: I'd like to know its melting point. The compound in question is O=C1CC(c2ccc3ccccc3c2)C(C(=O)Nc2ccc(Cl)cn2)(C(=O)Nc2ccc(Cl)cn2)C(c2ccc3ccccc3c2)C1 (stereo not shown) [Compound 3h]
Output: 114 to 115 °C

Reference for the values: paper PMC6480224
